Source of measurements: patent US20240190936A1

Biological target: T1, human glucagon receptor (human, UniProt P47871 26-477)
T1 construct: whole, on cells; cAMP assays used the whole cells; also called GcgR; hGcgR
T1 sequence (P47871 26-477): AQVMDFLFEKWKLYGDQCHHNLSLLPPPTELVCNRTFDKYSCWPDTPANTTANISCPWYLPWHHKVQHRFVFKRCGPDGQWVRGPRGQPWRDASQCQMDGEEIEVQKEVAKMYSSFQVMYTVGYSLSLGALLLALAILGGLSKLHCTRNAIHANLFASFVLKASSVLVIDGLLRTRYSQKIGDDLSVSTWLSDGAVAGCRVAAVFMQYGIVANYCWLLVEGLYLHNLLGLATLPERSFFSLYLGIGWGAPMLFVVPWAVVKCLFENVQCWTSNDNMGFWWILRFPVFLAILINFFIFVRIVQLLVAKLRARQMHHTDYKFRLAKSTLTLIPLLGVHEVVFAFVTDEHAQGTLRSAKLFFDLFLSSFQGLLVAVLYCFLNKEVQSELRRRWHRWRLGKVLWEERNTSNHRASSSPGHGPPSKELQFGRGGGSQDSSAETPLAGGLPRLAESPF
Assay: radioligand competition SPA, membranes of HEK293 cells overexpressing human GcgR
Consider the following binders; for each one, report its pKi.
Numbers only, as −log10 of the molar value.

Study these solved cases before continuing.
| BINDER | pKi |
| --- | --- |
| YXHGTXTSDYSILLDKKAQXAFIEYLLEGGPSSGAPPPS (Aib at 2; αMeF(2F) at 6; K17 conjugated at the epsilon-amino group with (2-[2-(2-amino-ethoxy)-ethoxy]-acetyl)2-(γGlu)-CO-(CH2)18-CO2H; Aib at 20; C-terminal amide, Synthetic acylated peptide) [Example 3] | 9.33 |
| YXQGTXTSDYSILLDKKAQXAFIEYLLEGGPSSGAPPPS (Aib at 2; αMeF(2F) at 6; K17 conjugated at the epsilon-amino group with (2-[2-(2-amino-ethoxy)-ethoxy]-acetyl)-(γGlu)-CO-(CH2)18-CO2H; Aib at 20; C-terminal amide, Synthetic acylated peptide) [Example 4] | 9.20 |

Batch request: pKi for each of the following binders.
1. YXQGTXTSDYSIXLDKKAQXAFIEYLLEGGPSSGAPPPS (Aib at 2; αMeF at 6; αMeL at 13; K17 conjugated at the epsilon-amino group with (2-[2-(2-amino-ethoxy)-ethoxy]-acetyl)2-(γGlu)-CO-(CH2)18-CO2H; Aib at 20; C-terminal amide, Synthetic acylated peptide) [Example 2]
2. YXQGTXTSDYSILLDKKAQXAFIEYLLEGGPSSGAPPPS (Aib at 2; αMeF at 6; K17 conjugated at the epsilon-amino group with (2-[2-(2-amino-ethoxy)-ethoxy]-acetyl)2-(γGlu)-CO-(CH2)18-CO2H; Aib at 20; C-terminal amide, Synthetic acylated peptide) [Example 1]

Ans:
1: 8.83; 2: 9.02
